Each entry below carries its recorded Trimeric HA Binding: RLU.
# SYSTEM UNDER TEST: recombinant soluble homotrimeric HA of A/Vietnam/1203/04 (H5N1) (Influenza A virus A/VietNam/1203/2004(H5N1))
# METHOD DESCRIPTION: HA microarray, BCC supernatant
# CONDITION: remark: other sources report otherwise
MEASURED ENDPOINT: Trimeric HA Binding: RLU

>  <BINDER>
TCN-528 (5087_P17) (antibody, V domains shown) VH: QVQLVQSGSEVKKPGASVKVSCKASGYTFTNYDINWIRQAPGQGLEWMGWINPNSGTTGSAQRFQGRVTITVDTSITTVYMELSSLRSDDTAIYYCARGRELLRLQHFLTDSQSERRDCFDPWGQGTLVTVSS VL: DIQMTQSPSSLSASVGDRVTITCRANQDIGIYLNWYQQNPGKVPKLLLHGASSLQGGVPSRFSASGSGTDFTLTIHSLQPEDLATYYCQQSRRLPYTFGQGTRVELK

>  <MEASURED RESULT>
45600 RLU

$$$$
>  <BINDER>
TCN-538 (3206_O17) (antibody, V domains shown) VH: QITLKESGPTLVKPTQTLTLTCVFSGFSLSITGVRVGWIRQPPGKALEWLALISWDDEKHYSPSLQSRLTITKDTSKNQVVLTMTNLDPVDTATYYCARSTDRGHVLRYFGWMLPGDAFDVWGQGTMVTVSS VL: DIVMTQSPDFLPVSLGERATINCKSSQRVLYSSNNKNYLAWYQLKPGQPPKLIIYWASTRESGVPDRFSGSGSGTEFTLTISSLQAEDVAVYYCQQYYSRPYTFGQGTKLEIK

>  <MEASURED RESULT>
60 RLU

$$$$
>  <BINDER>
TCN-523 (5248_A17) (antibody, V domains shown) VH: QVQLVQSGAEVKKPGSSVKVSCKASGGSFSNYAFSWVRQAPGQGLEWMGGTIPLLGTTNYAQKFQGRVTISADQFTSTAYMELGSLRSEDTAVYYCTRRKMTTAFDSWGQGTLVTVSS VL: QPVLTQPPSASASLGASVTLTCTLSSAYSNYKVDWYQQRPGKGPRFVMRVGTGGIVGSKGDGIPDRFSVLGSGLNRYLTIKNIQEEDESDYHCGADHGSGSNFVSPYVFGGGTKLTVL

>  <MEASURED RESULT>
3380 RLU

$$$$
>  <BINDER>
TCN-522 (3212_I12) (antibody, V domains shown) VH: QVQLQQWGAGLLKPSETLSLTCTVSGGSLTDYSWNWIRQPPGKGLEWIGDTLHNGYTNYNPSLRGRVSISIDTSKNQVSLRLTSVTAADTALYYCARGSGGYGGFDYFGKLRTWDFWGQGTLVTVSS VL: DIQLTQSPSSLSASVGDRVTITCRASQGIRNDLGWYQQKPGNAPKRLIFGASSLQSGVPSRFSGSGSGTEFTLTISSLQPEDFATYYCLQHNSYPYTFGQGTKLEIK

>  <MEASURED RESULT>
145 RLU

$$$$
>  <BINDER>
TCN-540 (5060_F05) (antibody, V domains shown) VH: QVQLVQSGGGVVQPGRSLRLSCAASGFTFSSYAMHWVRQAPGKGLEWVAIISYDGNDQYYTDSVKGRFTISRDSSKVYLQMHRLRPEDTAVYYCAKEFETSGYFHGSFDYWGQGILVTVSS VL: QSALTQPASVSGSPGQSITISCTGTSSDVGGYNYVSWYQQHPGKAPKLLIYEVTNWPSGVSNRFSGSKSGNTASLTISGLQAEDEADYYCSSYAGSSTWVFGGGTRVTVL

>  <MEASURED RESULT>
63 RLU

$$$$
>  <BINDER>
TCN-542 (5079_A16) (antibody, V domains shown) VH: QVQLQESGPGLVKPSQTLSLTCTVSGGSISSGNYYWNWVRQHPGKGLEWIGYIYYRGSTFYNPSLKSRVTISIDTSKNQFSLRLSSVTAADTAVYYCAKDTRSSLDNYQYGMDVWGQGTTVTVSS VL: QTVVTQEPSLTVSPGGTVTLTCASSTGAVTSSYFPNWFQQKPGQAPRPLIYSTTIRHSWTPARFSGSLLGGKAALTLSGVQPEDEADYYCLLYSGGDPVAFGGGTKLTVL

>  <MEASURED RESULT>
306 RLU

$$$$
